Reference for the values: patent CN116262786A

- subjectOfTest: T1, 人源重组FOLR1蛋白 (人源FOLR1重组胞外结构域蛋白) (human, UniProt P15328 25-233)
- T1 construct: range 25-233; a tag is not mentioned; also called FOLR1重组蛋白; 人FOLR1
- assayComment: ELISA, coated FOLR1 of each species 1 μg/mL, VHH-hFc titrated from 2 μg/mL, goat anti-human IgG-HRP
parameterMeasured: binding result

binder | parameterMeasured | result
2D8-hFC1 (Fc fusion, human, not shown: a dimerising Fc or GST; small tags and cut ends, domain: Fc区段 (铰链区 Hinge, CH2和CH3区); VHH cloned into vector RJK-V4-hFC; also called VHH-hFc 2D8; 单域抗体2D8的Fc融合抗体) QVQLVESGGGSVQAGGSLRLSCAASDYTYRRYCMGWFRQAPGKEREKVAAIYLGDGTTYYTDSVKGRFTISQENAKNTIYLQMNNLKPEDTAMYYCAADRSGCSVTWSYSAFEDWGQGTQVTVSS | binding result | binds
1D11-hFC1 (Fc fusion, human, not shown: a dimerising Fc or GST; small tags and cut ends, domain: Fc区段 (铰链区 Hinge, CH2和CH3区); VHH cloned into vector RJK-V4-hFC; also called VHH-hFc 1D11; 单域抗体1D11的Fc融合抗体) QVQLVESGGGSVQAGGSLRLSCAASGDTYSSACMDWFRQAPGKEREGVAGISSGGSTYYADSVKGRFTISRDNAKNTLYLQMNSLKPEDTAMYYCAARRVGRIPCRTMLPGLQDYWGQGTQVTVSS | binding result | binds
